Data credit: ChEMBL document CHEMBL3603759

experiment: Binding affinity to 5'-FAM-pre-miR-372 (unknown origin) after 4 hrs by fluorescence assay in presence of 100-fold excess of 15-mer DNA
MEASUREMENT LABEL: log10 of Kd (log10 of the value in µM)
Friendly reminder: values = log10 of Kd, unit µM.

Req: Recorded log10 of Kd for NC[C@@H]1O[C@H](O[C@H]2[C@@H](O)[C@H](O[C@@H]3[C@@H](O)[C@H](N)C[C@H](N)[C@H]3O[C@H]3O[C@H](CN)[C@@H](O)[C@H](O)[C@H]3N)O[C@@H]2CO)[C@H](N)[C@@H](O)[C@@H]1O , please?
Resp: 1.05

Req: Entry CN[C@@H]1[C@@H](O[C@H]2O[C@H](CO)[C@@H](N)[C@H](O)[C@H]2O)OC2C[C@@H](N)[C@@H](O[C@H]3[C@H](O)[C@@H](O)[C@H](N)C[C@@H]3N)OC2[C@@H]1O (stereo not given in full) : reported log10 of Kd = ?
Resp: 0.82

Req: Given the compound C[C@H]1c2cccc(O)c2C(=O)C2=C(O)[C@]3(O)C(=O)C(C(N)=O)=C(O)[C@@H](N(C)C)[C@@H]3[C@@H](O)[C@@H]21 , what is its reported log10 of Kd?
Resp: 0.21

Req: Can you share its log10 of Kd? I mean this compound: NC[C@H]1O[C@H](O[C@H]2[C@H](O)[C@@H](O)[C@H](N)C[C@@H]2N)[C@H](N)[C@@H](O)[C@@H]1O
Resp: 2.39

Req: log10 of Kd for CN(C)[C@@H]1C(O)=C(C(N)=O)C(=O)[C@@]2(O)C(O)=C3C(=O)c4c(O)cccc4[C@@](C)(O)[C@H]3[C@H](O)[C@@H]12 ?
Resp: 1.01
